Biological target: human melanocortin-4 receptor (human, UniProt P32245 1-332)
Sequence (P32245 whole entry): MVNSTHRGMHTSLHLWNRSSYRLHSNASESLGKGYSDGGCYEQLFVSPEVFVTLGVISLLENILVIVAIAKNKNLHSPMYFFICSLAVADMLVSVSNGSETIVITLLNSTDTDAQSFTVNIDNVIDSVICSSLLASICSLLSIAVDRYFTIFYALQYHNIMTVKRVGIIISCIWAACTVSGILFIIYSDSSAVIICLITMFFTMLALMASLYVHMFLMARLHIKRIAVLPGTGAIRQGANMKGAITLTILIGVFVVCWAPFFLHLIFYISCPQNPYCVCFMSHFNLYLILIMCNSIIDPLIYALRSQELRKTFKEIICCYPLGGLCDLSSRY
Experiment: cell-based or functional assay
Positions of bridges follow the written chain, without caps; N, C: chain ends. Non-standard residues stand in square brackets, D forms with d. dPhe(3,5-F2) = N[C@H](Cc1cc(F)cc(F)c1)C(=O)O; dPhe(4-CN) = N#Cc1ccc(C[C@@H](N)C(=O)O)cc1; dPhe(2-F) = N[C@H](Cc1ccccc1F)C(=O)O; Orn = NCCC[C@H](N)C(=O)O
Collected Intrinsic Activity, cAMP, 10 ng/mL Doxycycline values appear next to each entry.
result.type: Intrinsic Activity, cAMP, 10 ng/mL Doxycycline

binder	reported.result
Ac-RES[dPhe(2-F)]RW[Orn]-NH2 (lactam 2-7, also called No. 58) [Ac-Arg-cyclo(Glu-Ser-D-Phe(2-F)-Arg-Trp-Orn)-NH2]	100%
Ac-REE[dPhe(4-CN)]RW[Orn]-NH2 (lactam 2-7; SMILES CC(=O)N[C@@H](CCCNC(=N)N)C(=O)N[C@H]1CCC(=O)NCCC[C@@H](C(N)=O)NC(=O)[C@H](Cc2c[nH]c3ccccc23)NC(=O)[C@H](CCCNC(=N)N)NC(=O)[C@@H](Cc2ccc(C#N)cc2)NC(=O)[C@H](CCC(=O)O)NC1=O) [Ac-Arg-cyclo(Glu-Glu-D-Phe(4-CN)-Arg-Trp-Orn)-NH2]	59%
Ac-REE[dPhe(4-CN)]RW[Orn]-OH (lactam 2-7) [Ac-Arg-cyclo(Glu-Glu-D-Phe(4-CN)-Arg-Trp-Orn)-OH]	69%
Ac-RED[dPhe(4-CN)]RW[Orn]-NH2 (lactam 2-7; SMILES CC(=O)N[C@@H](CCCNC(=N)N)C(=O)N[C@H]1CCC(=O)NCCC[C@@H](C(N)=O)NC(=O)[C@H](Cc2c[nH]c3ccccc23)NC(=O)[C@H](CCCNC(=N)N)NC(=O)[C@@H](Cc2ccc(C#N)cc2)NC(=O)[C@H](CC(=O)O)NC1=O, also called No. 106) [Ac-Arg-cyclo(Glu-Asp-D-Phe(4-CN)-Arg-Trp-Orn)-NH2]	77%
Ac-R[Orn]N[dPhe(3,5-F2)]RWE-NH2 (lactam 2-7, also called No. 77) [Ac-Arg-cyclo(Orn-Asn-D-Phe(3,5-diF)-Arg-Trp-Glu)-NH2]	80%
